For LXFL 529 NSCLC, measured GI50 is reported for the entries below.

Some compounds with known GI50 results, for comparison:
Fill in the blank: the reported GI50 of Nc1ncnc2c(C3OC(CO)C(O)C3O)scc12 (centres undefined) is ____.
365 nM

Fill in the blank: the reported GI50 of CCC[CH2][Ge]([CH2]CCC)([CH2]CCC)[O]C(=O)C(OC)c1ccccc1 (centres undefined) is ____.
15600 nM

Go through the items and report each one's GI50.
1. COc1cc2c(c(OC)c1OC)-c1ccc(SC)c(=O)cc1[C@@H](NCc1cccc(C#N)c1)CC2
2. CCC[CH2][Ge]([CH2]CCC)([CH2]CCC)[O]C(=O)C(O)c1ccccc1 (centres undefined)

< 7.5 nM
1290 nM
